- procedure_summary: Peptide stability in simulated gastric fluid (SGF)
- Type: in vitro ADME
- experimental_setup: pig, simulated gastric fluid (SGF) with porcine pepsin, Table 3-3, porcine pepsin, pH 1.2, 37° C., 10 μM, 4 h, read-out: SGF (% remaining 4 h)
*1 amine or outer side, *2 acyl side, *3 side chain or, on linkers, in order; H or OH if unused. Where a SMILES comes first, the peptide text is derived from it. Bridges are numbered along the chain shown (N, C = ends). [ ]: non-standard residue; d: D form. Phe(4-NH2) = Nc1ccc(C[C@H](N)C(=O)O)cc1; 2Nal = N[C@@H](Cc1ccc2ccccc2c1)C(=O)O; AEF = NCCOc1ccc(C[C@H](N)C(=O)O)cc1; αMeL = CC(C)C[C@](C)(N)C(=O)O; CH2COCH2 = O=C(C[*:1])C[*:2]; 3Amb = NCc1cccc(C(=O)O)c1

| compound | unit_abbreviation | remaining at 4 h, 10 μM |
| --- | --- | --- |
| CC(C)C[C@]1(C)NC(=O)[C@H](Cc2ccc3ccccc3c2)NC(=O)[C@H](Cc2ccc(OCCN)cc2)NC(=O)[C@@H]2CSCC(=O)CSC[C@H](NC(=O)[C@H](CO)NC(=O)c3cccc(c3)CNC(=O)CC[C@@H](C(=O)N[C@@H](Cc3ccc(N)cc3)C(N)=O)NC1=O)C(=O)N[C@@H](Cc1c[nH]c3ccccc13)C(=O)N[C@@H](CCC(N)=O)C(=O)N2 [Compound 45] ([3Amb]SCWQC[AEF][2Nal][αMeL]E[Phe(4-NH2)]-NH2; linker 3-6 via CH2COCH2; lactam N-10) | % | 84 |
